Each record here notes measured GI50.
Tested on: CAKI-1
protocol: NCI tumour cell line growth inhibition, 48 h
Active and inactive are the calls of the source. No stated cut-off is given here; in the data, active = GI50 up to about 1.1 µM and inactive = higher.

[
  {
    "compound": "CC(=O)OC/C=C\\Cn1nc(Br)c(=O)[nH]c1=O",
    "GI50": "10.7 µM (inactive)"
  },
  {
    "compound": "Clc1cccc(-c2nc3cccc4c3n2Cc2ncccc2-4)c1",
    "GI50": "8.02 µM (inactive)"
  },
  {
    "compound": "Cn1c(-c2ccccc2)cc(-c2ccc3c(c2)OCO3)c1-c1ccsc1",
    "GI50": "> 100 µM (inactive)"
  }
]

Inquiry: I have this compound here, CC(C)=CCC/C(C)=C/Cc1cc(/C=C/c2cc(O)c(CC=C(C)C)c(O)c2)cc(O)c1O , and I need its recorded GI50.
Reply text: 5.42 µM (inactive)

Inquiry: I have this compound here, CCCCC1C(=O)N(c2ccc(S(=O)(=O)Nc3ccccn3)cc2)N(c2ccc(O)c(C(=O)O)c2)C1=O (stereo not given) , and I need its recorded GI50.
Reply text: > 100 µM (inactive)

Inquiry: I have this compound here, N=C(N)NS(=O)(=O)c1ccc(NC(=O)c2cccc3c(N)c4ccccc4nc23)cc1 , and I need its recorded GI50.
Reply text: > 100 µM (inactive)

Inquiry: I have this compound here, O=C1Oc2ccccc2C(=O)/C1=C/NC(=S)NCc1ccccc1 , and I need its recorded GI50.
Reply text: 21 µM (inactive)

Inquiry: I have this compound here, CC(C)CCNC(=O)c1ccc(CNC(=O)/C=C/c2ccc3ccccc3c2)cc1 , and I need its recorded GI50.
Reply text: > 100 µM (inactive)

Inquiry: I have this compound here, CN(C)c1ccc(/C=c2\sc3nc4ccccc4n3c2=O)cc1 , and I need its recorded GI50.
Reply text: > 100 µM (inactive)

Inquiry: I have this compound here, COC(=O)C(Cc1c[nH]c2ccccc12)NP(=O)(O)OCC1OC(n2cc(I)c(=O)[nH]c2=O)CC1O (stereo not given) , and I need its recorded GI50.
Reply text: > 100 µM (inactive)

====

Tested on: CCRF-CEM
protocol: NCI tumour cell line growth inhibition, 48 h
Calls of active or inactive are those of the source. Rule as the data show it: active = GI50 up to about 1.1 µM and inactive = higher.
Form entry, call: pick from class 1 = active, class 0 = inactive

Inquiry: // return assay outcome for CCC1C(=O)OCc2c1cc1n(c2=O)Cc2cc3ccccc3nc2-1 (stereo not given)
Reply text: class 1

Inquiry: // return assay outcome for Cn1cnc([N+](=O)[O-])c1Sc1ccccn1
Reply text: class 0

Inquiry: // return assay outcome for CN1C(=O)N(C)C(O)C(Cl)(Br)C1=O (stereo not given)
Reply text: class 0

Inquiry: // return assay outcome for CC(=O)C1=C(O)/C(=C\c2ccco2)OC1=O
Reply text: class 0

====

Tested on: SK-OV-3
protocol: NCI tumour cell line growth inhibition, 48 h
Calls of active or inactive are those of the source. Cut-off read from the data, not from the text of the source: active = GI50 up to about 1.1 µM and inactive = higher.
Form entry, call: pick from 1 (yes) = active, 0 (no) = inactive

Solved entries:
[
  {
    "molecule": "Nc1ccccc1N",
    "discreteLabel": "0 (no)"
  },
  {
    "molecule": "O=C1C=C2CCC[C@H]3OC(=O)C[C@@]23CC1",
    "discreteLabel": "0 (no)"
  },
  {
    "molecule": "CCOC(=O)/C=C(/C(=O)OCC)n1cc(C)c(=O)n(Cc2cnnn2COCCOC(C)=O)c1=O",
    "discreteLabel": "0 (no)"
  },
  {
    "molecule": "CCn1c2c(c3ccccc3c1=O)C(=O)c1ccccc1-2",
    "discreteLabel": "0 (no)"
  },
  {
    "molecule": "CSc1nc(Cl)c2c(n1)Sc1nc3cc4c(cc3n1C2O)OCCO4 (centres undefined)",
    "discreteLabel": "1 (yes)"
  }
]

Inquiry: // return assay outcome for O=c1[nH]cc(COCCO)c(=O)[nH]1
Reply text: 0 (no)

Inquiry: // return assay outcome for OCc1ccc(-c2ccc(-c3ccc(CO)s3)o2)s1
Reply text: 0 (no)

Inquiry: // return assay outcome for CCOC(=O)N1CCN(C(=O)Nc2cccc3ccccc23)CC1
Reply text: 0 (no)

Inquiry: // return assay outcome for CC(=O)NC1C(OCc2ccccc2)OC(CO)C(O)C1OCC(=O)N[C@@H](C)C(=O)N[C@H](CCC(=O)NCCNc1ccc([N+](=O)[O-])c2[nH]c3ccccc3c(=O)c12)C(N)=O (some centres undefined)
Reply text: 0 (no)

Inquiry: // return assay outcome for CC(CO)CCNc1ncnc2c1ncn2CCC(=O)OC(C)(C)C (centres undefined)
Reply text: 0 (no)

Inquiry: // return assay outcome for C/C=C1\CN2CCc3c([nH]c4ccccc34)C2CC1CCO (centres undefined)
Reply text: 0 (no)

Inquiry: // return assay outcome for CSc1nc(Cl)c(Br)c(Nc2cnc(O)nc2O)n1
Reply text: 0 (no)

Inquiry: // return assay outcome for Fc1sc2c(c1F)C1CCC2C1 (centres undefined)
Reply text: 0 (no)

Inquiry: // return assay outcome for Cc1cc(N(CCC#N)CCC#N)ccc1/N=N/c1cccc(Cl)c1
Reply text: 0 (no)

Inquiry: // return assay outcome for O=C(CC(=O)c1ccccc1)C(=O)NC12CC3CC(CC(C3)C1)C2
Reply text: 0 (no)

Inquiry: // return assay outcome for Cc1cccc2c(N)c3cccc(C(=O)NCC[N+](C)(C)Cc4sc(N5CCOCC5)nc4[N+](=O)[O-])c3nc12
Reply text: 0 (no)

Inquiry: // return assay outcome for O=[N+]([O-])c1cccc(/C=N/N=c2\ccc3ccccc3[nH]2)c1O
Reply text: 0 (no)

Inquiry: // return assay outcome for Cc1ccc2c(ccc(/C=C/c3ccc(O)c4ncccc34)[n+]2C)c1
Reply text: 0 (no)

Inquiry: // return assay outcome for CC[P+]1(c2ccccc2)CCCCC1
Reply text: 0 (no)

Inquiry: // return assay outcome for CCSc1nc2n(c(=S)n1)CCN2C
Reply text: 0 (no)

Inquiry: // return assay outcome for O=C(CCc1nnc2s/c(=C\c3ccccc3)c(=O)n12)Nc1cc(Cl)ccc1Cl
Reply text: 0 (no)

Inquiry: // return assay outcome for COC(=O)C1[C@H](c2cc(OC)c(OC)c(OC)c2)OC(=O)C1(C(=O)OC)C(=O)c1ccc2c(c1)OCO2 (some centres undefined)
Reply text: 0 (no)

Inquiry: // return assay outcome for Oc1cc2c(cc1C(c1ccc3c(c1)OCO3)N1CCN(C(c3ccc4c(c3)OCO4)c3cc4c(cc3O)OCO4)CC1)OCO2 (centres undefined)
Reply text: 0 (no)

Inquiry: // return assay outcome for CN1C(=O)c2c(c3c4ccccc4n(C)c3c3c2c2ccccc2n3C)C1=O
Reply text: 0 (no)

====

Each record here notes measured GI50.
System: SNB-19
protocol: NCI tumour cell line growth inhibition, 48 h
Active and inactive are the calls of the source. Cut-off read from the data, not from the text of the source: active = GI50 up to about 1.1 µM and inactive = higher.

Worked examples, 5 molecules total:
[
  {
    "molecule": "Cc1c(N)nc([C@H](CC(N)=O)NC[C@H](N)C(N)=O)nc1C(=O)N[C@H](C(=O)N[C@H](C)[C@@H](O)[C@H](C)C(=O)N[C@H](C(=O)NCCc1nc(-c2nc(C(=O)NCCC[S+](C)C)cs2)cs1)[C@@H](C)O)C(OC1OC(CO)C(O)C(O)C1OC1OC(CO)C(O)C(OC(N)=O)C1O)c1c[nH]cn1 (some centres undefined)",
    "GI50": "3.96 µM (inactive)"
  },
  {
    "molecule": "CC(C)=CCC12Cc3ccc(O)cc3C(C(C)CN1)C2C (centres undefined)",
    "GI50": "> 100 µM (inactive)"
  },
  {
    "molecule": "CC(=O)c1sc2c(c1OC(=O)c1ccccc1)c(=O)n(-c1ccccc1)c(=S)n2-c1ccccc1",
    "GI50": "4.84 µM (inactive)"
  },
  {
    "molecule": "OCC(CO)CC1COc2ccccc2O1 (centres undefined)",
    "GI50": "> 10 µM (inactive)"
  },
  {
    "molecule": "O=C1CSC(C(/N=N/c2ccccc2)=C2Nc3ccccc3N2)=N1",
    "GI50": "31.9 µM (inactive)"
  }
]

Inquiry: I have this molecule here, CCCCCCCCP(=O)(O)OP(=O)(O)OCC1OC(n2ccc(N)nc2=O)C(O)C1O (centres undefined) , and I need its recorded GI50.
Reply text: > 100 µM (inactive)

Inquiry: I have this molecule here, Cc1c2ccncc2c(C)c2c1[nH]c1ccc(OCC(F)(F)F)cc12 , and I need its recorded GI50.
Reply text: 1.64 µM (inactive)

Inquiry: I have this molecule here, COc1cc(C2C3=C(COC3=O)OC(C)(C)Oc3cc4c(cc32)OCO4)cc(OC)c1O (centres undefined) , and I need its recorded GI50.
Reply text: 1.33 µM (inactive)

Inquiry: I have this molecule here, CCN(CC)CCNc1ccc([N+](=O)[O-])c2nc3ccccc3c(N)c12 , and I need its recorded GI50.
Reply text: 0.615 µM (active)

Inquiry: I have this molecule here, Cc1nc2c(nc1C)-c1c(c3c(n1Cc1ccccc1)C(=O)CCC3)C(=O)C2=O , and I need its recorded GI50.
Reply text: 7.96 µM (inactive)
